test: total protein half-life in vivo (active degradation + dilution); higher = more stable protein; conditions: wild type E. coli NCM3722; growth: P-lim chemostat; doubling time 6 h
experimental endpoint: total protein half-life in vivo (h)
The response must be a number in h with no trailing unit.

Give total protein half-life in vivo for MWKRLLIVSAVSAAMSSMALAAPLTVGFSQVGSESGWRAAETNVAKSEAEKRGITLKIADGQQKQENQIKAVRSFVAQGVDAIFIAPVVATGWEPVLKEAKDAEIPVFLLDRSIDVKDKSLYMTTVTADNILEGKLIGDWLVKEVNGKPCNVVELQGTVGASVAIDRKKGFAEAIKNAPNIKIIRSQSGDFTRSKGKEVMESFIKAENNGKNICMVYAHNDDMVIGAIQAIKEAGLKPGKDILTGSIDGVPDIYKAMMDGEANASVELTPNMAGPAFDALEKYKKDGTMPEKLTLTKSTLYLPDTAKEELEKKKNMGY 5.4

Tell me its total protein half-life in vivo given MSSRNNPARVAIVMGSKSDWATMQFAAEIFEILNVPHHVEVVSAHRTPDKLFSFAESAEENGYQVIIAGAGGAAHLPGMIAAKTLVPVLGVPVQSAALSGVDSLYSIVQMPRGIPVGTLAIGKAGAANAALLAAQILATHDKELHQRLNDWRKAQTDEVLENPDPRGAA [P0AG18] as the entry. 5.68

Consider the sequence MKTLIVSTVLAFITFSAQAAAFQVTSNEIKTGEQLTTSHVFSGFGCEGGNTSPSLTWSGVPEGTKSFAVTVYDPDAPTGSGWWHWTVVNIPATVTYLPVDAGRRDGTKLPTGAVQGRNDFGYAGFGGACPPKGDKPHHYQFKVWALKTEKIPVDSNSSGALVGYMLNANKIATAEITPVYEIK and give its recorded total protein half-life in vivo. 6.28

State its total protein half-life in vivo: MLIPWQDLSPETLENLIESFVLREGTDYGEHERTLEQKVADVKRQLQCGEAVLVWSELHETVNIMPRSQFRE 4.61

###

assay: total protein half-life in vivo (active degradation + dilution); higher = more stable protein; details: E. coli NCM3722 delta-clpP delta-lon delta-hslV; growth: N-lim chemostat; doubling time 6 h
experimental endpoint: total protein half-life in vivo (h)
Output spec: scalar in h, unitless text.

Worked examples, 2 sequences total:
sequence string	experimental endpoint	units	measured number
MSIRFARKADCAAIAEIYNHAVLYTAAIWNDQTVDADNRIAWFEARTLAGYPVLVSEENGVVTGYASFGDWRSFDGFRHTVEHSVYVHPDHQGKGLGRKLLSRLIDEARDCGKHVMVAGIESQNQASLHLHQSLGFVVTAQMPQVGTKFGRWLDLTFMQLQLDERTEPDAIG	total protein half-life in vivo	h	5.23
MFILWYSASSTFGKDSDIVMGVRAQQKEKTRRSLVEAAFSQLSAERSFASLSLREVAREAGIAPTSFYRHFRDVDELGLTMVDESGLMLRQLMRQARQRIAKGGSVIRTSVSTFMEFIGNNPNAFRLLLRERSGTSAAFRAAVAREIQHFIAELADYLELENHMPRAFTEAQAEAMVTIVFSAGAEALDVGVEQRRQLEERLVLQLRMISKGAYYWYRREQEKTAIIPGNVKDE [P0ACU5]	total protein half-life in vivo	h	6.31

Fill in reported total protein half-life in vivo for this entry: MAELSDQEMLRYNRQIILRGFDFDGQEALKDSRVLIVGLGGLGCAASQYLASAGVGNLTLLDFDTVSLSNLQRQTLHSDATVGQPKVESARDALTRINPHIAITPVNALLDDAELAALIAEHDLVLDCTDNVAVRNQLNAGCFAAKVPLVSGAAIRMEGQITVFTYQDGEPCYRCLSRLFGENALTCVEAGVMAPLIGVIGSLQAMEAIKMLAGYGKPASGKIVMYDAMTCQFREMKLMRNPGCEVCGQ 5.3
